# Tested on: HCT116 cells
# procedure.details: Lactate dehydrogenase (LDH) release assay
# Assay type: cell-based
# test.conditions: 0% FBS 4Hr
Positions of bridges follow the written chain, without caps; N, C: chain ends. Non-standard residues stand in square brackets, D forms with d. Residues, ends and D or L forms follow the SMILES beside them. dPhe(4-CF3) = N[C@H](Cc1ccc(C(F)(F)F)cc1)C(=O)O; dTrp(6-F) = N[C@H](Cc1c[nH]c2cc(F)ccc12)C(=O)O; R5 = C=CCCC[C@@](C)(N)C(=O)O
Listing of recorded LDH: Cytotoxicity assay % Effect by entry.
Field note: include the unit after the figure.

1) CC(C)C[C@@H](NC(=O)[C@@]1(C)CCCC=CCCC[C@@](C)(NC(=O)[C@@H](C)NC(=O)[C@@H](Cc2ccc(O)cc2)NC(=O)[C@@H](Cc2c[nH]c3cc(F)ccc23)NC(=O)[C@@H](C)NC(=O)[C@H](N)[C@H](C)O)C(=O)N[C@H](Cc2ccc(C(F)(F)F)cc2)C(=O)N[C@H](CCC(=O)O)C(=O)N[C@H](CCC(N)=O)C(=O)N1)C(=O)N[C@H](CO)C(N)=O [MP-795] (H-[dT][dA][dTrp(6-F)][dY][dA][R5][dPhe(4-CF3)][dE][dQ][R5][dL][dS]-NH2; staple 6-10)    13.17%

Below: the item to evaluate.
IN: Tell me its LDH: Cytotoxicity assay % Effect given CC(=O)N[C@@H](CCCCN=[N+]=[N-])C(=O)NCCC(=O)N[C@@H](CC(C)C)C(=O)N[C@@H](CCCCN)C(=O)N[C@@H](Cc1ccccc1)C(=O)N[C@]1(C)CCCCCCC=CCCC[C@@](C)(C(=O)N[C@@H](CO)C(=O)N[C@@H](C)C(=O)N[C@@H](C)C(N)=O)NC(=O)[C@H](CC2CCC2)NC(=O)[C@H](CCC(N)=O)NC(=O)[C@H](C)NC(=O)[C@H](Cc2c[nH]c3ccccc23)NC(=O)[C@H](Cc2ccc(O)cc2)NC(=O)[C@H](CCC(=O)O)NC1=O [MP-547, AZIDE-ATSP-7041 (T2K)] as the entry.
OUT: 26.9%

###

# Test system: HCT116 cells
# procedure.details: Lactate dehydrogenase (LDH) release assay
# Assay type: cell-based
Positions of bridges follow the written chain, without caps; N, C: chain ends. Non-standard residues stand in square brackets, D forms with d. Residues, ends and D or L forms follow the SMILES beside them. Lys(N3) = [N-]=[N+]=NCCCC[C@H](N)C(=O)O; R8 = C=CCCCCCC[C@@](C)(N)C(=O)O; Cba = N[C@@H](CC1CCC1)C(=O)O; S5 = C=CCCC[C@](C)(N)C(=O)O
Listing of recorded LDH: Cytotoxicity assay: % Effect by entry.
Field: numeric (%). Do not append units.

1. CC(=O)N[C@@H](CCCCN=[N+]=[N-])C(=O)NCC(=O)N[C@@H](CO)C(=O)NCC(=O)N[C@H](C(=O)N[C@@H](CO)C(=O)N[C@@H](Cc1ccccc1)C(=O)N[C@]1(C)CCCCCCC=CCCC[C@@](C)(C(=O)N[C@@H](CCC(=O)O)C(N)=O)NC(=O)[C@H](CC(C)C)NC(=O)[C@H](CC(C)C)NC(=O)[C@H](C)NC(=O)[C@H](Cc2c[nH]c3ccccc23)NC(=O)[C@H](Cc2ccc(O)cc2)NC(=O)[C@H](CCC(=O)O)NC1=O)[C@@H](C)O [MP-010]    19.63

IN: Tell me its LDH: Cytotoxicity assay: % Effect given CC(C)C[C@H](NC(=O)[C@@H](N)CCCCN=[N+]=[N-])C(=O)N[C@H](C(=O)N[C@@H](Cc1ccccc1)C(=O)N[C@]1(C)CCCCCCC=CCCC[C@@](C)(C(=O)N[C@@H](CCC(=O)O)C(N)=O)NC(=O)[C@H](CC2CCC2)NC(=O)[C@H](CCC(N)=O)NC(=O)[C@H](C)NC(=O)[C@H](Cc2c[nH]c3ccccc23)NC(=O)[C@H](Cc2ccc(O)cc2)NC(=O)[C@H](CCC(=O)O)NC1=O)[C@@H](C)O [MP-4009] (H-[Lys(N3)]LTF[R8]EYWAQ[Cba][S5]E-NH2; staple 5-12) as the entry.
OUT: -2.907
